biological target: N-terminal HiBiT tagged BCL-XL (Homo sapiens); construct: expressed in transfected cells; host or cells: HT-1080 (ATCC CCL-121) cells stably transduced with lentivirus pLV-UBC-N-HiBiT-BCL-XL-PGK-puro; assay: HiBiT based degradation assay; type: cell-based; details: HT1080 cells expressing N-terminal HiBiT tagged BCL-XL; 24 h; BCL-XL level normalized with DMSO control

{"columns": ["Compound", "Ymin (24 h)"],
 "data": [
  ["Cc1c(OCCC2CCN(CC3CCN(c4cc5c(cc4F)C(=O)N(C4CCC(=O)NC4=O)C5=O)CC3)CC2)cccc1-c1ccc(N2CCc3cccc(C(=O)Nc4nc5ccccc5s4)c3C2)nc1C(=O)O (stereo not drawn)", "A (Ymin < 50%)"],
  ["Cc1cc(OCCCC2CCN(CCN3CCN(c4cc5c(cc4F)C(=O)N(C4CCC(=O)NC4=O)C5=O)CC3)CC2)ccc1-c1ccc(N2CCc3cccc(C(=O)Nc4nc5ccccc5s4)c3C2)nc1C(=O)O (stereo not drawn)", "A (Ymin < 50%)"]
]}

----------
biological target: N-terminal HiBiT tagged BCL-XL (Homo sapiens, UniProt Q07817); construct: expressed in transfected cells; host or cells: HT-1080 (ATCC CCL-121) cells stably transduced with lentivirus pLV-UBC-N-HiBiT-BCL-XL-PGK-puro; test: HiBiT based degradation assay; type: cell-based; settings: HT1080 cells expressing N-terminal HiBiT tagged BCL-XL; 24 h; BCL-XL level normalized with DMSO control
Sequence (Q07817 whole entry): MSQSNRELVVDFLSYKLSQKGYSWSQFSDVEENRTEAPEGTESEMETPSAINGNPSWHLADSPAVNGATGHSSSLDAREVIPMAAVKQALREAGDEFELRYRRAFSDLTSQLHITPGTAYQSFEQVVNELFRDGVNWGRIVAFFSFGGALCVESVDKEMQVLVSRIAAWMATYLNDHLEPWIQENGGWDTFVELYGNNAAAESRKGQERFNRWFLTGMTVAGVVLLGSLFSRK

{"columns": ["Compound", "Ymin (24 h)"],
 "data": [
  ["Cc1cc(OCCCC2CCN(CC(=O)N3CCN(c4cc5c(cc4F)C(=O)N(C4CCC(=O)NC4=O)C5=O)CC3)CC2)ccc1-c1ccc(N2CCc3cccc(C(=O)Nc4nc5ccccc5s4)c3C2)nc1C(=O)O (centres unmarked)", "B (50% ≤ Ymin < 70%)"],
  ["Cc1c(OCCCCC2CCN(CC(=O)N3CCN(c4cc5c(cc4F)C(=O)N(C4CCC(=O)NC4=O)C5=O)CC3)CC2)cccc1-c1ccc(N2CCc3cccc(C(=O)Nc4nc5ccccc5s4)c3C2)nc1C(=O)O (centres unmarked)", "B (50% ≤ Ymin < 70%)"],
  ["Cc1c(OCCC[C@@H]2CCN(CC(=O)N3CCN(c4cc5c(cc4F)C(=O)N(C4CCC(=O)NC4=O)C5=O)CC3)C2)cccc1-c1ccc(N2CCc3cccc(C(=O)Nc4nc5ccccc5s4)c3C2)nc1C(=O)O (some centres unmarked) [Compound 122b]", "B (50% ≤ Ymin < 70%)"],
  ["Cc1c(OCC2CC3(CCN(CC(=O)N4CCN(c5cc6c(cc5F)C(=O)N(C5CCC(=O)NC5=O)C6=O)CC4)CC3)C2)cccc1-c1ccc(N2CCc3cccc(C(=O)Nc4nc5ccccc5s4)c3C2)nc1C(=O)O (centres unmarked)", "B (50% ≤ Ymin < 70%)"]
]}

----------
target: N-terminal HiBiT tagged BCL-XL (Homo sapiens); construct: expressed in transfected cells; host or cells: HT-1080 (ATCC CCL-121) cells stably transduced with lentivirus pLV-UBC-N-HiBiT-BCL-XL-PGK-puro; test: HiBiT based degradation assay; format: cell-based; conditions: HT1080 cells expressing N-terminal HiBiT tagged BCL-XL; 6 h; BCL-XL level normalized with DMSO control
Value type: Ymin (6 h)

{"columns": ["Compound", "Target under test", "Value type", "Measured result"],
 "data": [
  ["Cc1c(OCCCCCCCCCN2CCN(c3cc4c(cc3F)C(=O)N(C3CCC(=O)NC3=O)C4=O)CC2)cccc1-c1ccc(N2CCc3cccc(C(=O)Nc4nc5ccccc5s4)c3C2)nc1C(=O)O (centres unmarked) [Compound 105]", "N-terminal HiBiT tagged BCL-XL (Homo sapiens)", "Ymin (6 h)", "A (Ymin < 50%)"],
  ["Cc1cc(OCCCC2CCN(CC(=O)N3CCN(c4cc5c(cc4F)C(=O)N(C4CCC(=O)NC4=O)C5=O)CC3)CC2)ccc1-c1ccc(N2CCc3cccc(C(=O)Nc4nc5ccccc5s4)c3C2)nc1C(=O)O (centres unmarked) [Compound 138]", "N-terminal HiBiT tagged BCL-XL (Homo sapiens)", "Ymin (6 h)", "C (Ymin ≥ 70%)"],
  ["Cc1c(OCCCCCCCN2CCN(c3cc4c(cc3F)C(=O)N(C3CCC(=O)NC3=O)C4=O)CC2)cccc1-c1ccc(N2CCc3cccc(C(=O)Nc4nc5ccccc5s4)c3C2)nc1C(=O)O (centres unmarked) [Compound 104]", "N-terminal HiBiT tagged BCL-XL (Homo sapiens)", "Ymin (6 h)", "B (50% ≤ Ymin < 70%)"],
  ["Cc1c(OCCCCCCCC(=O)N2CCN(c3cc4c(cc3F)C(=O)N(C3CCC(=O)NC3=O)C4=O)CC2)cccc1-c1ccc(N2CCc3cccc(C(=O)Nc4nc5ccccc5s4)c3C2)nc1C(=O)O (centres unmarked) [Compound 114]", "N-terminal HiBiT tagged BCL-XL (Homo sapiens)", "Ymin (6 h)", "B (50% ≤ Ymin < 70%)"]
]}

Please provide the recorded Ymin (6 h) for Cc1c(OCCCCCCCCC(=O)N2CCN(c3cc4c(cc3F)C(=O)N(C3CCC(=O)NC3=O)C4=O)CC2)cccc1-c1ccc(N2CCc3cccc(C(=O)Nc4nc5ccccc5s4)c3C2)nc1C(=O)O (centres unmarked) [Compound 109] , tested on N-terminal HiBiT tagged BCL-XL (Homo sapiens).
B (50% ≤ Ymin < 70%)

I'm curious: which Ymin (6 h) was measured for Cc1c(O[C@H]2CC[C@H](CCCN3CCN(c4cc5c(cc4F)C(=O)N(C4CCC(=O)NC4=O)C5=O)CC3)CC2)cccc1-c1ccc(N2CCc3cccc(C(=O)Nc4nc5ccccc5s4)c3C2)nc1C(=O)O (some centres unmarked) [Compound 112a] tested on N-terminal HiBiT tagged BCL-XL (Homo sapiens)?
B (50% ≤ Ymin < 70%)

Lookup: Ymin (6 h) / N-terminal HiBiT tagged BCL-XL (Homo sapiens) / Cc1c(OCCCCCCCCCCCN2CCN(c3cc4c(cc3F)C(=O)N(C3CCC(=O)NC3=O)C4=O)CC2)cccc1-c1ccc(N2CCc3cccc(C(=O)Nc4nc5ccccc5s4)c3C2)nc1C(=O)O (centres unmarked) [Compound 107]
B (50% ≤ Ymin < 70%)

Record lookup: for N-terminal HiBiT tagged BCL-XL (Homo sapiens), what Ymin (6 h) belongs to Cc1c(OCCCN2CCN(c3cc4c(cc3F)C(=O)N(C3CCC(=O)NC3=O)C4=O)CC2)cccc1-c1ccc(N2CCc3cccc(C(=O)Nc4nc5ccccc5s4)c3C2)nc1C(=O)O (centres unmarked) [Compound 101] ?
B (50% ≤ Ymin < 70%)

Provide value of Ymin (6 h) for this record tested with N-terminal HiBiT tagged BCL-XL (Homo sapiens): Cc1c(Oc2ccc(CCCC(=O)N3CCN(c4cc5c(cc4F)C(=O)N(C4CCC(=O)NC4=O)C5=O)CC3)cc2)cccc1-c1ccc(N2CCc3cccc(C(=O)Nc4nc5ccccc5s4)c3C2)nc1C(=O)O (centres unmarked) [Compound 119]
C (Ymin ≥ 70%)

Hi! What's the reported Ymin (6 h) for Cc1c(OCCC2CCN(CC(=O)N3CCN(c4cc5c(cc4F)C(=O)N(C4CCC(=O)NC4=O)C5=O)CC3)CC2)cccc1-c1ccc(N2CCc3cccc(C(=O)Nc4nc5ccccc5s4)c3C2)nc1C(=O)O (centres unmarked) [Compound 106] on N-terminal HiBiT tagged BCL-XL (Homo sapiens)?
B (50% ≤ Ymin < 70%)

Form field: Ymin (6 h) recorded for Cc1c(Oc2ccc(CCCN3CCN(c4cc5c(cc4F)C(=O)N(C4CCC(=O)NC4=O)C5=O)CC3)cc2)cccc1-c1ccc(N2CCc3cccc(C(=O)Nc4nc5ccccc5s4)c3C2)nc1C(=O)O (centres unmarked) [Compound 110] with N-terminal HiBiT tagged BCL-XL (Homo sapiens) (enter value)
B (50% ≤ Ymin < 70%)

Kindly state the measured Ymin (6 h) obtained for Cc1c(O[C@H]2CC[C@H](CCC(=O)N3CCC(c4cc5c(cc4F)C(=O)N(C4CCC(=O)NC4=O)C5=O)CC3)CC2)cccc1-c1ccc(N2CCc3cccc(C(=O)Nc4nc5ccccc5s4)c3C2)nc1C(=O)O (some centres unmarked) [Compound 140a] with N-terminal HiBiT tagged BCL-XL (Homo sapiens).
C (Ymin ≥ 70%)

Observed Ymin (6 h) on N-terminal HiBiT tagged BCL-XL (Homo sapiens) for O=C1CCC(N2C(=O)c3cc(F)c(N4CCN(CCCCCCCOc5cccc(-c6ccc(N7CCc8cccc(C(=O)Nc9nc%10ccccc%10s9)c8C7)nc6C(=O)O)c5)CC4)cc3C2=O)C(=O)N1 (centres unmarked) [Compound 103] , please.
B (50% ≤ Ymin < 70%)

Which measured Ymin (6 h) belongs to Cc1c(OCCCCCCCN2CCN(c3cc4c(cc3F)C(=O)N(C3CCC(=O)NC3=O)C4=O)CC2)cccc1-c1ccc(N2CCc3cccc(C(=O)Nc4nc5ccccc5s4)c3C2)nc1C(=O)NO (centres unmarked) [Compound 137] , tested on N-terminal HiBiT tagged BCL-XL (Homo sapiens)?
C (Ymin ≥ 70%)

Form entry - test system: N-terminal HiBiT tagged BCL-XL (Homo sapiens); read-out: Ymin (6 h); compound: Cc1c(OCCCCCCN2CCN(c3cc4c(cc3F)C(=O)N(C3CCC(=O)NC3=O)C4=O)CC2)cccc1-c1ccc(N2CCc3cccc(C(=O)Nc4nc5ccccc5s4)c3C2)nc1C(=O)O (centres unmarked) [Compound 115]
C (Ymin ≥ 70%)

For the record Cc1c(OCCCCCCCCCC(=O)N2CCN(c3cc4c(cc3F)C(=O)N(C3CCC(=O)NC3=O)C4=O)CC2)cccc1-c1ccc(N2CCc3cccc(C(=O)Nc4nc5ccccc5s4)c3C2)nc1C(=O)O (centres unmarked) [Compound 102] , what value of Ymin (6 h) is listed for N-terminal HiBiT tagged BCL-XL (Homo sapiens)?
A (Ymin < 50%)

Kindly state the measured Ymin (6 h) obtained for Cc1c(O[C@@H](C)CCC2CCN(CC(=O)N3CCN(c4cc5c(cc4F)C(=O)N(C4CCC(=O)NC4=O)C5=O)CC3)CC2)cccc1-c1ccc(N2CCc3cccc(C(=O)Nc4nc5ccccc5s4)c3C2)nc1C(=O)O (some centres unmarked) [Compound 128a] with N-terminal HiBiT tagged BCL-XL (Homo sapiens).
C (Ymin ≥ 70%)
